// values below are reported % Signal Inhibition Average
# EXPERIMENTAL TARGET: T1, canine OX40L, full length membrane form, expressed on HEK293 cells (canine)
# T1 chain: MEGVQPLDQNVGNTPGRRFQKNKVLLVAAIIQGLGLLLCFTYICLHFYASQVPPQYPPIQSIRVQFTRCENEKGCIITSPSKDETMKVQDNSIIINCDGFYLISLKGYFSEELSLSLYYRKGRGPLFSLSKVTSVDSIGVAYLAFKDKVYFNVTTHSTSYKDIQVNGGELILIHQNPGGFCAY
# METHOD SUMMARY: cell-based or functional assay
Express your answer in %, writing the number without its unit.

Known results for binders:
INSERT INTO assay_data (binder, endpoint_value) VALUES
  ('PMX111 (antibody, V domains shown) VH: EVQLVESGGDLVRPGGSLRLSCVASGFTFSSYHMNWVRQAPGKGLQWVAFINSGASSATYADVVRGRFTISRDYAKNTLYLQMNSLRAEDTAVYYCASGSIWTHFDFWGQGTLVTVSS VL: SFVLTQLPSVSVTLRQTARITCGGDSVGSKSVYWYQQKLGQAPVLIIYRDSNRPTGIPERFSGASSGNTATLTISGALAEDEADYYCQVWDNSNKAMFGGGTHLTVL', 38.9),
  ('PMX045 (antibody, V domains shown, also called PMX45) VH: EVQLVESGGDLVKPGGSLRLSCVASGFTFSSYHMTWVRQAPGKGLQWVAYITSGGITTSYADAVKGRFTISRDNAKNTLYLQMSSLRAEDTAMYYCARDLVLLLGGADYWGQGTLVTVSS VL: SYELTQPPSVNVTLRETAHITCGGDSIGRKYVQWIQQNPGQAPVVIIYKDSNRPTGIPERFSGANSGNTATLTISGALAEDEADYYCQVGDSGTKAVFGGGTHLTVL', 75.9),
  ('PMX098 (antibody, V domains shown) VH: EVQLVESGGDLVKPGGSLRLSCVASGFTFNTYHMNWVRQAPGKGLHWVAFINSGGSGTSYADTVKGRFTISRDYAKNTLYLQMNSLRAEDTAVYYCASGSIWTHFDYWGQGTLVTVSS VL: SYVLTQLPSVSLTLRQTAHITCGGDIIGSKSVYWYQQKLGQAPVLIIYRDNNRPTGIPERFSGASSGNTATLTISGALAEDEADYYCQVWDSSTQAMFGGGTHLTVL', 45);

Kindly review the next binder as well.
For the binder shown here, PMX085 (antibody, V domains shown, also called PMX85) VH: EVKLVESGGDLVKPEGSLRLSCVVSGFTFSRYGMSWVRQAPGKGLQWVAYISSDGRSSSYTDAVQGRFTISSDNAKNTLYLQMNSLTTEDTAVYYCAKLGRGFNFNFWGQGTLVTVSS VL: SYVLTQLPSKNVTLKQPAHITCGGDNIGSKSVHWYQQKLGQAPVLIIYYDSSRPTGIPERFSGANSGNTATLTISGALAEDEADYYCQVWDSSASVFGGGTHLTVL , give the reported % Signal Inhibition Average.
46.9
